Molecular target: PSMA (Homo sapiens, UniProt Q04609)
Construct: host or cells: 22Rv1 human prostate cancer cells
Sequence (Q04609 whole entry): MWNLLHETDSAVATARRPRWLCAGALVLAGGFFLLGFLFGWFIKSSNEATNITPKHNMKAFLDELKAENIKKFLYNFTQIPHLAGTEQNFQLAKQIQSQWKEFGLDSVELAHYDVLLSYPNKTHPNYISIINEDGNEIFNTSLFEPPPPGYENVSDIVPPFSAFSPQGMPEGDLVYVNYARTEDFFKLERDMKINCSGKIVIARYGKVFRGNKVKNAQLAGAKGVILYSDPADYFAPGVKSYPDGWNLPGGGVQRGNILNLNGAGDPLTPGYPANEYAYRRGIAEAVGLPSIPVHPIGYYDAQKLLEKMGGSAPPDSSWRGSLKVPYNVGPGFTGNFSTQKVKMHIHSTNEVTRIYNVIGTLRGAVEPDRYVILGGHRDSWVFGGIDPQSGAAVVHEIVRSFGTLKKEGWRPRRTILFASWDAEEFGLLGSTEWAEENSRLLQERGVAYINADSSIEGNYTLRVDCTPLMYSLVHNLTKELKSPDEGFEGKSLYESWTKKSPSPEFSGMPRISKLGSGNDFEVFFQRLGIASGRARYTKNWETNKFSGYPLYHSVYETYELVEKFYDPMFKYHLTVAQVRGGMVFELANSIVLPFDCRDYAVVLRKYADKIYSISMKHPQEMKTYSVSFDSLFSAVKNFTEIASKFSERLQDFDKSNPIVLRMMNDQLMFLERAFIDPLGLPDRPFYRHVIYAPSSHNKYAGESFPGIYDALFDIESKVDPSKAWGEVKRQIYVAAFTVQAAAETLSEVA
Test: Relative binding affinity of DUPA-NIR conjugates with respect to DUPA-FITC on 22Rv1 cells, flow cytometry
Conditions: in vitro binding affinity data

>  <Smiles entry>
CC1(C)C(/C=C/C2=C(Oc3ccc(C[C@H](NC(=O)[C@H](CCCNC(=N)N)NC(=O)[C@H](Cc4ccccc4)NC(=O)CCCCCCCNC(=O)CC[C@H](NC(=O)N[C@@H](CCC(=O)O)C(=O)O)C(=O)O)C(=O)O)cc3)C(=C/C=C3/N(CCCCS(=O)(=O)O)c4ccc(S(=O)(=O)O)cc4C3(C)C)/CCC2)=[N+](CCCCS(=O)(=O)[O-])c2ccc(S(=O)(=O)O)cc21

>  <Target entity>
PSMA (Homo sapiens, UniProt Q04609)

>  <affinity for PSMA (in words)>
very high affinity

$$$$
>  <Smiles entry>
CC1(C)C(/C=C/C2=C(Oc3ccc(C[C@H](NC(=O)[C@H](Cc4ccccc4)NC(=O)CCCCCCCNC(=O)CC[C@H](NC(=O)N[C@@H](CCC(=O)O)C(=O)O)C(=O)O)C(=O)O)cc3)C(=C/C=C3/N(CCCCS(=O)(=O)O)c4ccc(S(=O)(=O)O)cc4C3(C)C)/CCC2)=[N+](CCCCS(=O)(=O)[O-])c2ccc(S(=O)(=O)O)cc21

>  <Target entity>
PSMA (Homo sapiens, UniProt Q04609)

>  <affinity for PSMA (in words)>
very high affinity

$$$$
>  <Smiles entry>
CC1(C)C(/C=C/C2=C(Oc3ccc(C[C@H](NC(=O)C[C@H](NC(=O)CC[C@H](NC(=O)N[C@@H](CCC(=O)O)C(=O)O)C(=O)O)C(=O)O)C(=O)O)cc3)C(=C/C=C3/N(CCCCS(=O)(=O)O)c4ccc(S(=O)(=O)O)cc4C3(C)C)/CCC2)=[N+](CCCCS(=O)(=O)[O-])c2ccc(S(=O)(=O)O)cc21

>  <Target entity>
PSMA (Homo sapiens, UniProt Q04609)

>  <affinity for PSMA (in words)>
very high affinity

$$$$
